- test.method.notes: activity coefficient (dimensionless); of the first substance listed, at infinite dilution; xn = mol fraction of the nth substance listed
- measurement.setup: 308.15 K; 101 kPa; Liquid; Chromatography; x1 = 0
measured.property: activity coefficient
One number for each entry.

INSERT INTO assay_data (compound, measured_property, meas_value) VALUES
  ('C1CCCCCCC1 [cyclooctane] + CCn1cc[n+](C)c1.CS(=O)(=O)[O-]', 'activity coefficient', 163),
  ('C1CCCCCC1 [cycloheptane] + CCn1cc[n+](C)c1.CS(=O)(=O)[O-]', 'activity coefficient', 113),
  ('CC#N [acetonitrile] + CCn1cc[n+](C)c1.CS(=O)(=O)[O-]', 'activity coefficient', 0.799),
  ('CCOC(C)(C)C [2-ethoxy-2-methylpropane] + CCn1cc[n+](C)c1.CS(=O)(=O)[O-]', 'activity coefficient', 66.5),
  ('CCc1ccccc1 [ethylbenzene] + CCn1cc[n+](C)c1.CS(=O)(=O)[O-]', 'activity coefficient', 18.1);

Dear colleague, could you send me activity coefficient for each of the items below? Thanks.
1. CC(C)OC(C)C [diisopropyl ether] + CCn1cc[n+](C)c1.CS(=O)(=O)[O-]
2. C=CCCCCCC [oct-1-ene] + CCn1cc[n+](C)c1.CS(=O)(=O)[O-]
3. CCCCCCCCC [nonane] + CCn1cc[n+](C)c1.CS(=O)(=O)[O-]
4. CCC[N+](=O)[O-] [1-nitropropane] + CCn1cc[n+](C)c1.CS(=O)(=O)[O-]

Result:
[79.6, 258, 911, 2.36]

Dear colleague, could you send me activity coefficient for each of the items below? Thanks.
1. c1ccncc1 [pyridine] + CCn1cc[n+](C)c1.CS(=O)(=O)[O-]
2. C=CCCCCCCCC [1-decene] + CCn1cc[n+](C)c1.CS(=O)(=O)[O-]
3. CCCO [propan-1-ol] + CCn1cc[n+](C)c1.CS(=O)(=O)[O-]

Result:
1.56
654
0.761

====

- test.method.notes: activity coefficient (dimensionless); of the first substance listed, at infinite dilution; xn = mol fraction of the nth substance listed
- measurement.setup: 338.15 K; 101 kPa; Liquid; Chromatography; x1 = 0
Decide using activity coefficient: a value greater than or equal to 50 is True, a smaller one is False.

Completed entries (count: 5):
INSERT INTO results (molecule, discrete_label) VALUES
  ('CCCCCCCCCC [decane] + CCn1cc[n+](C)c1.CS(=O)(=O)[O-]', 'True'),
  ('O [water] + CCn1cc[n+](C)c1.CS(=O)(=O)[O-]', 'False'),
  ('C=CCCCC [hex-1-ene] + CCn1cc[n+](C)c1.CS(=O)(=O)[O-]', 'True'),
  ('CCC(C)(C)OC [2-methoxy-2-methylbutane] + CCn1cc[n+](C)c1.CS(=O)(=O)[O-]', 'False'),
  ('CCCC(C)=O [pentan-2-one] + CCn1cc[n+](C)c1.CS(=O)(=O)[O-]', 'False');

Task: Hi team, for C#CCCCC [1-hexyne] + CCn1cc[n+](C)c1.CS(=O)(=O)[O-] , is the recorded activity coefficient at or above 50?
Result: False

Task: Hi team, for CCc1ccccc1 [ethylbenzene] + CCn1cc[n+](C)c1.CS(=O)(=O)[O-] , is the recorded activity coefficient at or above 50?
Result: False

Task: Hi team, for C1COCCO1 [1,4-dioxane] + CCn1cc[n+](C)c1.CS(=O)(=O)[O-] , is the recorded activity coefficient at or above 50?
Result: False

Task: Hi team, for CCC(=O)CC [pentan-3-one] + CCn1cc[n+](C)c1.CS(=O)(=O)[O-] , is the recorded activity coefficient at or above 50?
Result: False

Task: Hi team, for C=Cc1ccccc1 [styrene] + CCn1cc[n+](C)c1.CS(=O)(=O)[O-] , is the recorded activity coefficient at or above 50?
Result: False

Task: Hi team, for C=CCCCCCCCC [1-decene] + CCn1cc[n+](C)c1.CS(=O)(=O)[O-] , is the recorded activity coefficient at or above 50?
Result: True

Task: Hi team, for c1ccccc1 [benzene] + CCn1cc[n+](C)c1.CS(=O)(=O)[O-] , is the recorded activity coefficient at or above 50?
Result: True

Task: Hi team, for C#CCCCCC [1-heptyne] + CCn1cc[n+](C)c1.CS(=O)(=O)[O-] , is the recorded activity coefficient at or above 50?
Result: False

Task: Hi team, for c1ccncc1 [pyridine] + CCn1cc[n+](C)c1.CS(=O)(=O)[O-] , is the recorded activity coefficient at or above 50?
Result: False

Task: Hi team, for C1CCCCCCC1 [cyclooctane] + CCn1cc[n+](C)c1.CS(=O)(=O)[O-] , is the recorded activity coefficient at or above 50?
Result: True

Task: Hi team, for COC(C)(C)C [2-methoxy-2-methylpropane] + CCn1cc[n+](C)c1.CS(=O)(=O)[O-] , is the recorded activity coefficient at or above 50?
Result: False

Task: Hi team, for C1CCOC1 [tetrahydrofuran] + CCn1cc[n+](C)c1.CS(=O)(=O)[O-] , is the recorded activity coefficient at or above 50?
Result: False

Hello, the source for this data is the NIST ThermoML archive (doi:10.1016/j.jct.2012.03.005), in case you need it.
